Source of measurements: ChEMBL document CHEMBL1201862

Test system: Malme-3M
Experiment: NCI tumour cell line growth inhibition, 48 h
The source made the active and inactive calls. No stated cut-off is given here; in the data, active = GI50 up to about 1.1 µM and inactive = higher.
For each of the compounds below, state its GI50.

// below: answered compounds
compound=COC(=O)/C=C\C(C#N)(C#N)/N=C/c1ccc(OC)cc1 property_measured=GI50 result="1.73 µM (inactive)"
compound=COc1cccc2cc(C(C)=O)c(=O)oc12 property_measured=GI50 result="52.8 µM (inactive)"
compound=COC(=O)c1c(O)ccc2c1c1cc3ccccc3c(O)c1n2CCc1ccc(OC)c(OC)c1 property_measured=GI50 result="59.4 µM (inactive)"

// batch mode: one GI50 value per listed entry
1. NNC(=O)C1CCC(=O)N1S(=O)(=O)c1ccccc1 (stereo unspecified)
2. NCCCCC(N)C(=O)NCCNc1ccc(NCCNC(=O)C(N)CCCCN)c2c1C(=O)c1ccccc1C2=O (stereo unspecified)
3. Cc1ccc(CC2(OCCN(C)C)CCC(C(C)(C)C)CC2)cc1 (stereo unspecified)
4. Clc1ccc2c(SCC3CO3)c3ccccc3nc2c1 (stereo unspecified)
5. CC(=O)OC1COC(n2ccc3cc(Br)c([N+](=O)[O-])cc32)C(OC(C)=O)C1OC(C)=O (stereo unspecified)
6. C=CCC1(CN(C)C)CC/C(=C\c2ccc3c(c2)OCO3)C1=O (stereo unspecified)

Output:
1. > 100 µM (inactive)
2. > 100 µM (inactive)
3. 1.99 µM (inactive)
4. 2.04 µM (inactive)
5. 24.2 µM (inactive)
6. > 100 µM (inactive)

// batch mode: one GI50 value per listed entry
1. Cn1ccnc1CC(C)(O)c1ccccc1 (stereo unspecified)
2. COc1ccc2c(c1)[C@@H]1c3cc(OC)c(OC)cc3CCN1CCC2

Output:
["> 100 µM (inactive)", "> 100 µM (inactive)"]

====

Tested on: 786-0
Assay: NCI tumour cell line growth inhibition, 48 h
Calls of active or inactive are those of the source. Cut-off read from the data, not from the text of the source: active = GI50 up to about 1.1 µM and inactive = higher.
For each of the compounds below, state its GI50.

// below: answered compounds
compound=CSc1nc(SC)c2c(C)cn(Cc3ccccc3)c2n1 property_measured=GI50 result="> 100 µM (inactive)"
compound="O=C1CC(c2n[nH]c3ccccc23)C(=O)N1c1ccccc1 (stereo not given)" property_measured=GI50 result="> 100 µM (inactive)"
compound=O=C(CNc1ccc([N+](=O)[O-])cc1)Nn1c(-c2ccccc2)nc2ccccc2c1=O property_measured=GI50 result="2.4 µM (inactive)"
compound=COC(=O)c1c(O)ccc2c1c1c(n2CCc2ccc(OC)c(OC)c2)C(=O)c2ccccc2C1=O property_measured=GI50 result="13.8 µM (inactive)"
compound=Cc1ccc2c(c1)S(=O)(=O)c1ccc3ccccc3c1N2 property_measured=GI50 result="> 100 µM (inactive)"

// batch mode: one GI50 value per listed entry
1. O=C1CCCCCCCCCCC(=O)C2CCOCCOCCOCCC1Cc1cccc(n1)C2
2. OC1c2ccccc2CCC1CN1CCN(CCOC(c2ccc(F)cc2)c2ccc(F)cc2)CC1 (stereo not given)

Output:
1: > 100 µM (inactive); 2: 11.7 µM (inactive)

====

Test system: OVCAR-4
Experiment: NCI tumour cell line growth inhibition, 48 h
Active and inactive are the calls of the source. No stated cut-off is given here; in the data, active = GI50 up to about 1.1 µM and inactive = higher.
Respond using exactly one of the listed classes: y (active), n (inactive)

Below are worked cases with known answers.
molecule=Cc1ccc(S(=O)(=O)OCC/C(=C\[Si](C)(C)C)c2ccccc2)cc1 target_system=OVCAR-4 label_value=n
molecule="CCN1CCC(O)(c2ccccc2)C(C(=O)c2ccccc2)C1 (stereo not drawn)" target_system=OVCAR-4 label_value=n
molecule="COC1/C=C/C(C)C(OC)CC(O)/C=C/C(C)C(C(C)C(OC)C(C)CCC(=O)C(C)C(C/C=C/N(C)C=O)OC)OC(=O)/C=C/C=C(\\C)CC(OC)CC2=CC(=O)O[C@@H](C(C)C(OC)C1)[C@H]2O (stereo partly drawn)" target_system=OVCAR-4 label_value=y
molecule=C=CCN(c1cc(OCc2ccccc2)c2c(c(C)cn2S(=O)(=O)c2ccc([N+](=O)[O-])cc2)c1[N+](=O)[O-])S(C)(=O)=O target_system=OVCAR-4 label_value=n
molecule="COC(=O)CC(NC(=O)OCc1ccccc1)C(C(C)=O)C(=O)OCc1ccccc1 (stereo not drawn)" target_system=OVCAR-4 label_value=n

Input: Recorded test outcome, item `CN(C)CCNC(=O)C(C)(C)Oc1ccc(C(=O)c2ccc(Cl)cc2)cc1Cl`
Output: n

Input: Recorded test outcome, item O=C(CC(C(=O)c1cccs1)c1ccsc1)c1ccccc1 (stereo not drawn)
Output: n

Input: Recorded test outcome, item CC1C(O)[C@@]2(OC[C@@]34C(=O)CC5(O)[C@H](CCC6Cc7nc8c(nc7C[C@]65C)CC5CC[C@@H]6C7=C[C@H]9O[C@@]%10(O[C@@](C)(CO)C[C@@H]%10O)C(C)[C@@]9(O)[C@]7(C)[C@@H](O)CC6[C@]5(C)C8)C3=CC[C@H]4C2C)OC1(C)C (stereo partly drawn)
Output: y

====

Tested on: HOP-92
Test: NCI tumour cell line growth inhibition, 48 h
Calls of active or inactive are those of the source. Cut-off read from the data, not from the text of the source: active = GI50 up to about 1.1 µM and inactive = higher.
Property measured: GI50

// below: answered compounds
compound="CCCCCCCCCCCCCC1CCC(CC)N1 (stereo unspecified)" target_system=HOP-92 result="16.2 µM (inactive)"
compound=CCC(CCN)(CCN)[N+](=O)[O-] target_system=HOP-92 result="> 100 µM (inactive)"
compound="OCC(O)COc1c(Cl)cc(Cl)cc1Cl (stereo unspecified)" target_system=HOP-92 result="> 100 µM (inactive)"
compound=CN(C)CCCOc1ccc(/C=C2/CCC/C(=C/c3ccc(OCCCN(C)C)cc3)C2=O)cc1 target_system=HOP-92 result="1.16 µM (inactive)"
compound=CCn1c2nc(=O)n(CCCCCCCCSC(c3ccccc3)(c3ccccc3)c3ccccc3)c(=O)c-2nc2ccccc21 target_system=HOP-92 result="15.5 µM (inactive)"

// batch mode: one GI50 value per listed entry
1. COC(=O)CC(c1ccccc1)C1(c2ccccc2)SCCS1 (stereo unspecified)
2. COc1ccc(N2C(=O)CS(=O)(=O)C2c2cccc(Oc3ccccc3)c2)cc1 (stereo unspecified)
3. Oc1ccccc1C(c1cc2c(cc1O)OCO2)N1CCOCC1 (stereo unspecified)
4. C[Si](C)(OCCS(=O)(=O)O)C1(Cc2cccc3ccccc23)S(=O)(=O)OCCOS1(=O)=O
5. O=C(CC1C(=O)Nc2ccccc2S1(=O)=O)Nc1ccc(Cl)cc1 (stereo unspecified)
6. CC1C(=O)OC2CC[N+]3(CC(=O)c4ccc(Br)cc4)CC=C(COC(=O)C(C)(O)C1(C)O)C23 (stereo unspecified)

Output:
1. 12.6 µM (inactive)
2. 7.52 µM (inactive)
3. 17.3 µM (inactive)
4. 11.2 µM (inactive)
5. 16.9 µM (inactive)
6. > 299 µM (inactive)

====

Tested on: M14
Experiment: NCI tumour cell line growth inhibition, 48 h
Calls of active or inactive are those of the source. Rule as the data show it: active = GI50 up to about 1.1 µM and inactive = higher.
Respond using exactly one of the listed classes: YES (active), NO (inactive)

Below are worked cases with known answers.
molecule="COC(=O)C(CC(=O)c1c[nH]c2ccccc12)c1c[nH]c2ccccc12 (centres undefined)" label_value=NO
molecule=Cc1ccc(S(=O)(=O)OCC/C(=C\[Si](C)(C)C)c2ccccc2)cc1 label_value=NO

Lab note: next molecule to report on.
Input: Recorded test outcome, item `O=C1/C(=C\c2ccc(Cl)cc2Cl)Sc2scc(-c3cccc([N+](=O)[O-])c3)[n+]21`
Output: NO

====

Tested on: SNB-78
Assay: NCI tumour cell line growth inhibition, 48 h
Counter-ions that a name gives are not always drawn. Calls of active or inactive are those of the source. Rule as the data show it: active = GI50 up to about 1.1 µM and inactive = higher.
For each of the compounds below, state its GI50.

// below: answered compounds
compound=CCCCN(CCCC)C(=O)/C(CC(=O)c1cccc2ccccc12)=N\NC(=O)c1cc2ccccc2cc1O result="24.7 µM (inactive)"
compound="O=C1C=C2S[C@H]3C[C@]2(C=C1Br)C1=C(N3)C(=O)c2[nH]cc3c2C1=NCC3 [(+)-DISCORHABDIN B]" result="1.78 µM (inactive)"
compound=O=C(NC1CC1)c1c(O)[nH]c(=S)[nH]c1=O result="> 100 µM (inactive)"
compound=O=C1C(=Cc2c(O)cc(O)cc2O)C(=O)c2ccccc21 result="23.8 µM (inactive)"
compound="CNC(C)Cc1ccccc1OC (stereo not given) [METHOXYPHENAMINE HYDROCHLORIDE]" result="> 100 µM (inactive)"

// batch mode: one GI50 value per listed entry
1. O=C1CC(c2n[nH]c3ccccc23)C(=O)N1c1ccccc1 (stereo not given)
2. OCC(O)COc1c(Cl)cc(Cl)cc1Cl (stereo not given)
3. CN(C)/C(=N/C(=O)Nc1ccccc1)SCc1ccccc1
4. O=C1CCCCCCCCCCC(=O)C2CCOCCOCCOCCC1Cc1cccc(n1)C2
5. COc1ccc(/C=C2\CCC(CCN(C)C)(C3=CCCC3)C2=O)cc1 (stereo not given)

Output:
["> 100 µM (inactive)", "> 100 µM (inactive)", "> 100 µM (inactive)", "79.6 µM (inactive)", "21.8 µM (inactive)"]
